Hello, the source for this data is ChEMBL document CHEMBL3352352, in case you need it.

experiment: Intrinsic clearance in human liver microsomes; format: ADME; settings: read-out: CLH
VALUE_KIND: CLint scaled (mL/min/kg)
Give a bare numeral; the unit mL/min/kg is implied.

GET /value?item= CS(=O)(=O)Cn1cnc2c(N3CCOCC3)nc(-c3cccc4[nH]ccc34)cc21 &field=CLint scaled returns 6

====

Parameter 'readout' = IC50; parameter 'system' = Cytochrome P450 1A2 (Homo sapiens).
Sequence (P05177 whole entry): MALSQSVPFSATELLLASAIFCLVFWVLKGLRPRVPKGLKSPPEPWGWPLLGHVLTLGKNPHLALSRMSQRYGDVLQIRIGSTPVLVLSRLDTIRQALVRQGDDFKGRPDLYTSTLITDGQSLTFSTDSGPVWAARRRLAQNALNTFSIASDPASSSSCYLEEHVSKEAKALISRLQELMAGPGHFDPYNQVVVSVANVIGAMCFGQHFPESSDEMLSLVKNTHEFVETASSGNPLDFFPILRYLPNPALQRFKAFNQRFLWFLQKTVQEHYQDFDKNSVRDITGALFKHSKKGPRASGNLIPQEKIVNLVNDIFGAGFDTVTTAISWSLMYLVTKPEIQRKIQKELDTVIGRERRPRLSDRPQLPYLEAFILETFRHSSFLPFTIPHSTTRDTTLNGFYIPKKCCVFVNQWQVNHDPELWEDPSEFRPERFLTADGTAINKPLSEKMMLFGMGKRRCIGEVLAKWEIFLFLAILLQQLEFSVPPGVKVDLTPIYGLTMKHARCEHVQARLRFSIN

>>> measured_value("C[C@@H]1COCCN1c1nc(-c2cncc3[nH]ccc23)cc2c1ncn2[C@@H](C)S(C)(=O)=O")
"> 40 µM"

Here is another compound to look at.
So the reported IC50 for C[C@@H]1COCCN1c1nc(-c2nncc3[nH]ccc23)cc2c1ncn2C , on Cytochrome P450 1A2 (Homo sapiens), turned out to be > 24 µM
